# system-name: T1, RSV-F.mmh (Respiratory Syncytial Virus)
# T1 construct: also called recombinant RSV-F; soluble monomeric RSV-F
# test: SPR (Biacore), mAb captured via Fc, soluble RSV-F.mmh injected, 25 C
measured-endpoint: Kd (nM)
Supply the numeric figure in nM, leaving out any unit text.

>  <binder>
H1H3564P (antibody, V domains shown) VH: QVQLVQSGAEVKKPGSSVKVSCKASGGTLSNNAFSWVRQAPGQGLEWLGGFNPIFDTANYAQKFQGRITITLDASTGTVYMELSSLRSEDTGVYYCAGTGAHFEFWGQGTLVTVSS VL: DIQMTQSPSSLSASVGDRVTITCRTSQSISTYLNWYQQKPGKAPKFLIYAASTLQSGVPSRFSGSGSRTDFTLTISSLQPEDFATYYCQQSVSVPYTFGQGTKLEIK

>  <Kd [nM]>
25

$$$$
>  <binder>
H1H3591P (antibody, V domains shown) VH: EVQLVESGGGLVQPGRSLRLSCAASGFTFDDYAMHWVRQTPGKGLEWISGISWSSGTIVYADSVKGRFTISRDNAKNSLYLQMNSLRGEDTALYHCAKDGYRWKSYSYGLDVWGQGTTVTVSS VL: EIVMTQSPATLSLSPGERATLSCRPSQSVINNLAWYQQKPGQAPRLLIFGASSRATGIPARFSGSGSGTEFTLTISSLQSEDFALYYCQQYNNWPLTFGGGTKVEIK

>  <Kd [nM]>
34.2

$$$$

Note: attention shifts to another entry.
Entry under test: H1H3567P (antibody, V domains shown) VH: QVQLVQSGAEVKKPGASVKVSCKASGYTLTGYYLHWVRQAPGQGLEWMGWINPTSGGTNYAQKFQGRVTMTRDTSISAAFMELSRLRSDDTAVYHCAREFWPHGMDVWGQGTTVTVSS VL: AIQMTQSPSSLSASVGDRVTITCRASQAIRNDLGWYQQKPGKAPKLLIYASSSLQSGVPSRFSGSGSGTDFTLTISSLQPEDFATYYCLADYKYTWTFGQGTKVEIK . Its Kd was 43.4
